experiment: Solubility of compound at pH 7
Type: physicochemical
condition-description: buffer
Recorded solubility by entry

A selection of reference data follows.
| cpd-smiles | readout-label | data-value |
| --- | --- | --- |
| CCn1c(CO)nn(-c2cc3c(cc2F)c(=O)c(-c2c(F)cccc2Cl)cn3C(C)C)c1=O | solubility | > 400 µM |
| CCn1c(CO)nn(-c2cc3c([C@@H](C)C(F)(F)F)nn(-c4ccccc4C)c(=O)c3cc2F)c1=O | solubility | < 4 µM |
| CCn1c(CO)nn(-c2cc3c(C(C)C)nn(-c4ccccc4C)c(=O)c3cc2F)c1=O | solubility | > 400 µM |

For CCn1c(CO)nn(-c2cc3c([C@H](C)C(F)(F)F)nn(-c4ccccc4C)c(=O)c3cc2F)c1=O the molecule record lists solubility as < 4 µM
